Target System: UniProt P15056
Sequence (P15056 whole entry): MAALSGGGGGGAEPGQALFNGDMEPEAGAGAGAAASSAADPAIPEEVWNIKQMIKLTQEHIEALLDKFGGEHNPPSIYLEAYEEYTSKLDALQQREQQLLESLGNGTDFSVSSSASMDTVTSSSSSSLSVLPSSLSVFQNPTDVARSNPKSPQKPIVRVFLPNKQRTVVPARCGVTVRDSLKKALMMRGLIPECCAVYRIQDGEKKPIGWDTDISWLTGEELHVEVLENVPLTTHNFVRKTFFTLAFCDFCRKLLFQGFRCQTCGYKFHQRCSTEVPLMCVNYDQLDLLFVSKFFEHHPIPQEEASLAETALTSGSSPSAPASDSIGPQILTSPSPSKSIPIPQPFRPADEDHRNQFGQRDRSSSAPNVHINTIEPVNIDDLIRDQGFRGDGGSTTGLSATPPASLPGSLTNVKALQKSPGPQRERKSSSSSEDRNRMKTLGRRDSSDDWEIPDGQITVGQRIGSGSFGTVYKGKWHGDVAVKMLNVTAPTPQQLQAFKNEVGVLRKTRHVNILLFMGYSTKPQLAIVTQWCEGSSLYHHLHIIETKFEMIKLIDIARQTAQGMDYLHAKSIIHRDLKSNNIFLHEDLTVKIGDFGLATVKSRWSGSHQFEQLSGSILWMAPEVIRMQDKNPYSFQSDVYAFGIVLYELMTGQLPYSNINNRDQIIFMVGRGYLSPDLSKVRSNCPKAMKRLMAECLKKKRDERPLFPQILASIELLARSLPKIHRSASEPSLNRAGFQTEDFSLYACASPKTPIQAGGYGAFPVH
Assay Overview: KINOMEscan competition binding assay, selectivity BRaf versus MKK4
Conditions Used: Test conc. 0.1 μM; ratio of percent of control; N/E* per footnote
Procedure: The assay was performed by combining three components: DNA-tagged kinase; immobilized ligand; and a test compound. The ability of the test compound to compete with the immobilized ligand was measured via quantitative PCR of the DNA tag. The technology is described in detail in Fabian, M. A. et al. A small molecule-kinase interaction map for clinical kinase inhibitors. Nat. […] Nat. The test compounds were provided as 10 mM stock solutions. […]
Endpoint Label: Selectivity BRaf/MKK4
Write the number on its own, no unit after it.

Sample answers from the record:
{"Molecule": "CCCS(=O)(=O)Nc1ccc(F)c(C(=O)c2c[nH]c3ncc(-c4ccc(OC5CCCC5)cc4Cl)cc23)c1F [Example 99]", "Target System": "UniProt P15056", "Selectivity BRaf/MKK4": 1.9}
{"Molecule": "CCCS(=O)(=O)Nc1ccc(F)c(C(=O)c2c[nH]c3ncc(-c4ccc(OC)cc4)cc23)c1F [Example 3]", "Target System": "UniProt P15056", "Selectivity BRaf/MKK4": 1.0}
{"Molecule": "CCCS(=O)(=O)Nc1ccc(F)c(C(=O)c2c[nH]c3ncc(-c4ccc(OCCOC)cc4Cl)cc23)c1F [Example 98]", "Target System": "UniProt P15056", "Selectivity BRaf/MKK4": 8.4}
{"Molecule": "CCCS(=O)(=O)Nc1ccc(F)c(C(=O)c2c[nH]c3ncc(-c4cc5c(cc4Cl)OCO5)cc23)c1F [Example 43]", "Target System": "UniProt P15056", "Selectivity BRaf/MKK4": 7.7}
{"Molecule": "CCCS(=O)(=O)Nc1ccc(F)c(C(=O)c2c[nH]c3ncc(-c4ccc(C(C)C)cc4)cc23)c1F [Example 7]", "Target System": "UniProt P15056", "Selectivity BRaf/MKK4": 0.9}

Given the entry CCCS(=O)(=O)Nc1ccc(F)c(C(=O)c2c[nH]c3ncc(-c4ccc(OC(C)C)cc4Cl)cc23)c1F [Example 96] , report its measured Selectivity BRaf/MKK4.
8.0

Given the entry CCCS(=O)(=O)Nc1ccc(F)c(C(=O)c2c[nH]c3ncc(-c4ccccc4O)cc23)c1F [Example 9] , report its measured Selectivity BRaf/MKK4.
4.2
